Catalogue of half-life readings, one per entry.
- Method description: Half life in serum (unknown origin)
- Type: ADME, cell-free

[
  {
    "Smiles entry": "Cc1ccccc1C(=O)Oc1ccc(O)c(C(C)(C)C)c1",
    "half-life": "< 0.25 h"
  },
  {
    "Smiles entry": "CN(C)c1cc(Cl)c(C(=O)N(C)c2ccc(O)c(C(C)(C)C)c2)c(Cl)c1",
    "half-life": "> 1 h"
  },
  {
    "Smiles entry": "CC(C)(C)c1cc(NC(=O)c2c(Cl)cc(NCc3cccnc3)cc2Cl)ccc1O",
    "half-life": "> 1 h"
  },
  {
    "Smiles entry": "CN(C)c1cc(Cl)c(C(=O)N(CC2CCCCC2)c2ccc(O)c(C(C)(C)C)c2)c(Cl)c1",
    "half-life": "> 1 h"
  }
]
